# System: A549
# METHOD: In vitro rate of inhibition of A-549 tumor cell growth at 10E-5 mol/L
# Type: functional, Homo sapiens
# ASSAY CONTEXT: at 10 µM
Returns one of Criterion met or Criterion not met; Criterion met when Rate of inhibition is >= 10%.

Look over these answered cases.
MOLECULE: CC(=O)N1NC(C)N(C(C)=O)NC1C (stereo unspecified)
GROUP LABEL: Criterion not met

MOLECULE: CCC1=NN(C(=O)Nc2cccc(C)c2)C(CC)=NN1C(=O)Nc1cccc(C)c1
GROUP LABEL: Criterion met

MOLECULE: CC1=NN(C(=O)NC2CCCCC2)C(C)=NN1C(=O)NC1CCCCC1
GROUP LABEL: Criterion not met

Incoming: Could you verify whether the entry Clc1ccc(-c2nnc(-c3ccc(Cl)cc3)nn2)cc1 shows Rate of inhibition of no less than 10%?
Outgoing: Criterion not met

Incoming: Could you verify whether the entry COc1ccccc1NC(=O)N1N=C(C)N(C(=O)Nc2ccccc2OC)N=C1C shows Rate of inhibition of no less than 10%?
Outgoing: Criterion not met

Incoming: Could you verify whether the entry Cc1ccc(-c2nnc(-c3ccc(C)cc3)nn2)cc1 shows Rate of inhibition of no less than 10%?
Outgoing: Criterion met

* * *

Rate of inhibition overview
# Test system: A549
# METHOD: In vitro rate of inhibition of A-549 tumor cell growth at 10E-5 mol/L
# Assay type: functional, Homo sapiens
# ASSAY CONTEXT: at 10 µM
Provide only the numeric value, understood in %.

Past entries and their recorded results:
COMPOUND: c1ccc(Cc2nnc(Cc3ccccc3)nn2)cc1
Rate of inhibition [%]: 61.7

COMPOUND: COc1cccc(NC(=O)N2N=C(C)N(C(=O)Nc3cccc(OC)c3)N=C2C)c1
Rate of inhibition [%]: 86.2

COMPOUND: CCCC1=NN(C(=O)OC)C(CCC)N=N1 (centres undefined)
Rate of inhibition [%]: 0

COMPOUND: CCCOC(=O)N1C(c2ccccc2)=NN=C(c2ccccc2)N1C(=O)OCCC
Rate of inhibition [%]: 29.8

COMPOUND: CCCC1=NN(C(=O)Nc2cccc(C)c2)C(CCC)=NN1C(=O)Nc1cccc(C)c1
Rate of inhibition [%]: 84.2

get_value(item= CC1=NN(C(=O)OCCC(C)C)C(C)N=N1 (centres undefined) , readout=Rate of inhibition) returns 0

get_value(item= CC1=NN(C(=O)Nc2cccc(Cl)c2)C(C)=NN1C(=O)Nc1cccc(Cl)c1 , readout=Rate of inhibition) returns 7.6

get_value(item= CCCOC(=O)N1N=C(C)N=NC1C (centres undefined) , readout=Rate of inhibition) returns 11

get_value(item= CC1=NN(C(=O)Nc2cccc3ccccc23)C(C)=NN1C(=O)Nc1cccc2ccccc12 , readout=Rate of inhibition) returns 16.9

* * *

# Test system: P388
# METHOD: In vitro rate of inhibition of P388 tumor cell growth at 10E-4 mol/L
# Format: functional, Mus musculus
# ASSAY CONTEXT: at 100 µM
Rate of inhibition overview
Provide only the numeric value, understood in %.

get_value(item= CC1=NN(C(=O)Nc2cc(C)cc(C)c2)C(C)=NN1C(=O)Nc1cc(C)cc(C)c1 , readout=Rate of inhibition) returns 90.7

get_value(item= CCCC1=NN(C(=O)Nc2cccc(C)c2)C(CCC)=NN1C(=O)Nc1cccc(C)c1 , readout=Rate of inhibition) returns 81.6

get_value(item= CCCC1=NN(C(=O)OC2CCCCC2)C(CCC)N=N1 (stereo not drawn) , readout=Rate of inhibition) returns 44

get_value(item= c1ccc(C2=NNC(c3ccccc3)=NN2)cc1 , readout=Rate of inhibition) returns 55.8

get_value(item= CC1=NN(C(=O)Nc2ccc(Cl)cc2)C(C)=NN1C(=O)Nc1ccc(Cl)cc1 , readout=Rate of inhibition) returns 50

get_value(item= CCCC1=NNC(CCC)N=N1 (stereo not drawn) , readout=Rate of inhibition) returns 42.2

get_value(item= CC1=NN(C(=O)Nc2cccc3ccccc23)C(C)=NN1C(=O)Nc1cccc2ccccc12 , readout=Rate of inhibition) returns 60.5

get_value(item= CCCCCOC(=O)N1N=C(CCC)N=NC1CCC (stereo not drawn) , readout=Rate of inhibition) returns 32.8

* * *

Rate of inhibition overview
# Tested on: A549
# METHOD: In vitro rate of inhibition of A-549 tumor cell growth at 10E-5 mol/L
# Type: functional, Homo sapiens
# ASSAY CONTEXT: at 10 µM
Provide only the numeric value, understood in %.

Past entries and their recorded results:
COMPOUND: COc1cc(NC(=O)N2N=C(C)N(C(=O)Nc3cc(OC)cc(OC)c3)N=C2C)cc(OC)c1
Rate of inhibition / %: 79.3
//
COMPOUND: COc1ccc(NC(=O)N2N=C(C)N(C(=O)Nc3ccc(OC)cc3)N=C2C)cc1
Rate of inhibition / %: 0.9
//
COMPOUND: CCC1NN(C(C)=O)C(CC)NN1C(C)=O (stereo not given)
Rate of inhibition / %: 9.7
//
COMPOUND: Clc1ccccc1-c1nnc(-c2ccccc2Cl)nn1
Rate of inhibition / %: 0

Let us examine a further case.
get_value(item= CC1=NN(C(=O)Nc2cc(C)cc(C)c2)C(C)=NN1C(=O)Nc1cc(C)cc(C)c1 , readout=Rate of inhibition) returns 73.9
